Test system: SNB-75 CNS
EXPERIMENTAL DETAILS: NCI tumour cell line growth inhibition, 48 h
MEASURED METRIC: TGI (µM)

[[record]]
molecule = "COC1=CC(=O)C2C(C1=O)[C@@H]1c3ccccc3OC(C)(C)[C@H]21 (stereo not given in full)"
unit_abbreviation = "µM"
cmp = ">"
measured_value = 100

[[record]]
molecule = "O=c1cc(-c2ccccc2)oc2ccc(OC/C(=N/O)c3ccc(F)cc3)cc12"
unit_abbreviation = "µM"
cmp = ">"
measured_value = 50

[[record]]
molecule = "O=C1C=CC(=O)C2C1Cc1ccccc1C2c1ccccc1 (stereo not given)"
unit_abbreviation = "µM"
cmp = ">"
measured_value = 100

[[record]]
molecule = "Cc1ccc2n(c1)cc(-c1ccc(/C=N/NC(=N)N/N=C/c3ccc(-c4cn5cc(C)ccc5[n+]4C)cc3)cc1)[n+]2C"
unit_abbreviation = "µM"
cmp = "="
measured_value = 35.2

[[record]]
molecule = "CC(=O)NNC(=S)/N=C\\c1c(O)c2ccccc2oc1=O"
unit_abbreviation = "µM"
cmp = ">"
measured_value = 100

[[record]]
molecule = "Nc1ncnc2c1sc(=S)n2-c1ccccc1"
unit_abbreviation = "µM"
cmp = ">"
measured_value = 100

[[record]]
molecule = "COc1cc(NS(C)(=O)=O)ccc1NCc1cnc2ccc3[nH]cccc3c12"
unit_abbreviation = "µM"
cmp = "="
measured_value = 39.3

[[record]]
molecule = "Cc1cc2c(cc1C)[n+](=O)c(C(=O)/C=C/c1ccc3c(c1)OCO3)c(C)n2[O-]"
unit_abbreviation = "µM"
cmp = "="
measured_value = 39.9

[[record]]
molecule = "CCOc1cc(C(=O)O)c2c(ccc3ccc(OC)c(OC)c32)c1OC"
unit_abbreviation = "µM"
cmp = ">"
measured_value = 100

[[record]]
molecule = "COc1ccc(C(C#N)=C2C=CC(=NO)C=C2)cc1"
unit_abbreviation = "µM"
cmp = "="
measured_value = 18.9


---

TGI by entry:
System: SW-620 colon
EXPERIMENTAL DETAILS: NCI tumour cell line growth inhibition, 48 h
Where a SMILES comes first, the peptide text is derived from it. [ ]: non-standard residue; d: D form. The star is where a group is joined. X28 = COC1=CC(=O)N(C(=O)[C@@H](O*)C(C)C)[C@H]1Cc1ccccc1; Bn2Val = CC(C)[C@@H](C(=O)*)N(Cc1ccccc1)Cc1ccccc1; NMeV = CN[C@H](C(=O)O)C(C)C; dNMeA = CN[C@H](C)C(=O)O
MEASURED METRIC: TGI

[[record]]
molecule = "COC1=CC(=O)N(C(=O)[C@@H](OC(=O)[C@@H](C)N(C)C(=O)[C@@H]2CCCN2C(=O)[C@H](C(C)C)N(C)C(=O)[C@@H](NC(=O)[C@H](C(C)C)N(Cc2ccccc2)Cc2ccccc2)C(C)C)C(C)C)[C@H]1Cc1ccccc1 (Bn2Val-V[NMeV]P[dNMeA]-X28)"
measured_value = "> 100 µM"

[[record]]
molecule = "N#C/C(=C/n1c(=S)[nH]c2ccccc21)C(N)=O"
measured_value = "> 100 µM"

[[record]]
molecule = "COc1ccc(OC)c(NC(=O)c2cccc(NC3=C(Cl)C(=O)N(Cc4ccccc4)C3=O)c2)c1"
measured_value = "> 100 µM"

[[record]]
molecule = "CCC[CH2][Sn]([CH2]CCC)([CH2]CCC)[O]C(=O)C(OC(C)=O)c1ccccc1 (stereo unspecified)"
measured_value = "0.273 µM"

[[record]]
molecule = "CSc1c2c(C)n[nH]c2nn1-c1ccccc1"
measured_value = "> 100 µM"

[[record]]
molecule = "COC1=CC(=O)c2c(cc(COP(N)(=O)N(CCCl)CCCl)n2C)C1=O (stereo unspecified)"
measured_value = "4.21 µM"


---

Tested on: MOLT-4 leukemia
EXPERIMENTAL DETAILS: NCI tumour cell line growth inhibition, 48 h
MEASURED METRIC: GI50

[[record]]
smiles_representation = "CCCCCCCCCCCC[N+](C)(C)Cc1ccccc1"
target_entity = "MOLT-4 leukemia"
measured_value = "2.18 µM"

[[record]]
smiles_representation = "CC/C=C\\C[C@H](O)C/C=C1/C(=O)C=C[C@@H]1C/C=C\\CCCC(=O)OC(C)C"
target_entity = "MOLT-4 leukemia"
measured_value = "1.24 µM"

[[record]]
smiles_representation = "c1ccc2cc(Cn3cc[n+](Cc4ccc5ccccc5c4)c3)ccc2c1"
target_entity = "MOLT-4 leukemia"
measured_value = "1.24 µM"

[[record]]
smiles_representation = "O=C(Nc1ccc2ncnc(Nc3ccc(Oc4cccc(F)c4)c(Cl)c3)c2c1)c1ccc(CN2CCOCC2)cc1"
target_entity = "MOLT-4 leukemia"
measured_value = "1.8 µM"

[[record]]
smiles_representation = "Cc1ccc(-c2c(C#N)[n+](=O)c3cc(F)c(F)cc3n2[O-])cc1"
target_entity = "MOLT-4 leukemia"
measured_value = "0.851 µM"

[[record]]
smiles_representation = "CCN(CC)CCCOc1ccc2ncnc(Nc3ccc(Oc4cccc(C(F)(F)F)c4)c(Cl)c3)c2c1"
target_entity = "MOLT-4 leukemia"
measured_value = "1.88 µM"


---

Tested on: SR leukemia
EXPERIMENTAL DETAILS: NCI tumour cell line growth inhibition, 48 h
MEASURED METRIC: TGI (µM)

[[record]]
molecule = "Nc1ccc2nc(Nc3ccc(Cl)c(Cl)c3)cnc2c1"
target_entity = "SR leukemia"
cmp = "="
measured_value = 35.5

[[record]]
molecule = "CC/C=C\\C[C@H](O)C/C=C1/C(=O)C=C[C@@H]1C/C=C\\CCCC(=O)OC(C)C"
target_entity = "SR leukemia"
cmp = "="
measured_value = 5.01

[[record]]
molecule = "CCOC(=O)CCC(NC(=O)c1ccc(Nc2nc3cc(C(F)(F)F)ccc3nc2C(=O)OCC)cc1)C(=O)OCC (stereo not given)"
target_entity = "SR leukemia"
cmp = ">"
measured_value = 100

[[record]]
molecule = "Nc1nc2c(c(-c3ccccc3Cl)n1)COC/C2=C\\c1ccccc1Cl"
target_entity = "SR leukemia"
cmp = "="
measured_value = 22.9

[[record]]
molecule = "CN(C)c1ccc(C(=N)c2ccc(N(C)C)cc2)cc1"
target_entity = "SR leukemia"
cmp = "="
measured_value = 5.3

[[record]]
molecule = "C=C1C(=O)[C@]23C[C@H]1C[C@@H](O)[C@H]2[C@]1(COC3=O)[C@@H](OC(C)=O)CC[C@@](C)(COC(C)=O)[C@H]1C=O"
target_entity = "SR leukemia"
cmp = ">"
measured_value = 50

[[record]]
molecule = "COc1cc(OC)cc(-c2nc3sccn3c2/C=N/N=C(N)N)c1"
target_entity = "SR leukemia"
cmp = "="
measured_value = 16.1

[[record]]
molecule = "CC(=O)NNC(=S)/N=C\\c1c(O)c2ccccc2oc1=O"
target_entity = "SR leukemia"
cmp = ">"
measured_value = 100

[[record]]
molecule = "Cn1cnc([N+](=O)[O-])c1Sc1nnnn1C"
target_entity = "SR leukemia"
cmp = "="
measured_value = 28.2

[[record]]
molecule = "CCCN(CCC)CCc1cc(C(C)=O)n(S(=O)(=O)c2ccc(C)cc2)c1"
target_entity = "SR leukemia"
cmp = ">"
measured_value = 100

[[record]]
molecule = "CC(C)(C)c1cc(C(=O)C2Cc3ccccc3C(=O)O2)cc(C(C)(C)C)c1O (stereo not given)"
target_entity = "SR leukemia"
cmp = "="
measured_value = 51.2

[[record]]
molecule = "CCCCC[C@H]1CC=C2C(=O)C=C[C@@H]2CC=CCCCC(=O)O[C@@H](CCCCC)CC=C2C(=O)C=C[C@@H]2CC=CCCCC(=O)O[C@@H](CCCCC)CC=C2C(=O)C=C[C@@H]2CC=CCCCC(=O)O1"
target_entity = "SR leukemia"
cmp = "="
measured_value = 1.34

[[record]]
molecule = "Cc1ccc2[nH]c3c(c2c1)N=c1ccccc1=NO3"
target_entity = "SR leukemia"
cmp = ">"
measured_value = 100

[[record]]
molecule = "CCCCC(=C=C(C)CO)C1CCCN1C(=O)OC(C)(C)C (stereo not given)"
target_entity = "SR leukemia"
cmp = "="
measured_value = 31.5

[[record]]
molecule = "C[C@]12CC[C@@H]3c4ccc(O)cc4CC[C@H]3[C@@H]1CC[C@@H]2NS(=O)(=O)c1cccc(Cl)c1"
target_entity = "SR leukemia"
cmp = "="
measured_value = 6.6

[[record]]
molecule = "N/C(=N\\S(=O)(=O)c1ccc(-c2ccccn2)s1)Nc1ccc(Cl)cc1"
target_entity = "SR leukemia"
cmp = "="
measured_value = 53.1

[[record]]
molecule = "CN(C)C(=S)/N=c1\\ssc(=S)n1Cc1cccs1"
target_entity = "SR leukemia"
cmp = ">"
measured_value = 100

[[record]]
molecule = "C=C(C)[C@@H]1CC[C@]2(COCCCNCCCN)CC[C@]3(C)[C@H](CC[C@@H]4[C@@]5(C)CC[C@H](OCCCN)C(C)(C)[C@@H]5CC[C@]43C)[C@@H]12"
target_entity = "SR leukemia"
cmp = "="
measured_value = 1.94

[[record]]
molecule = "CCCCCCCCCCCC[N+](C)(C)Cc1ccccc1"
target_entity = "SR leukemia"
cmp = "="
measured_value = 5.16

[[record]]
molecule = "O=P(O)(O)OCC1OC(n2cnc3c(NCc4ccco4)ncnc32)C(O)C1O (stereo not given)"
target_entity = "SR leukemia"
cmp = "="
measured_value = 3.93

